Tested on: Escherichia coli TOP10
RUN DESCRIPTION: shrunken log2 fold change of peptide-encoding DNA abundance (4.5 h post-induction vs induction); higher = less antimicrobial activity (less host growth inhibition)
TEST SETTINGS: time post-induction: 4.5 h; library: site-saturation at positions 5, 18, 19, 20
Binning scheme for shrunken log2 fold change: LOW = under -0.1, MEDIUM = from -0.1 up to 0.05, HIGH = 0.05 and over

Here are 10 sequences together with their reported answers.
Into which category would you place RRIRWRPPRLPRPRPRPPLRPRP ?
HIGH

Into which category would you place RRIRPRPPRLPRPRPRPHNTPRP ?
LOW

Into which category would you place RRIRYRPPRLPRPRPRPYDLPRP ?
MEDIUM

Into which category would you place RRIRSRPPRLPRPRPRPKPWPRP ?
HIGH

Into which category would you place RRIRHRPPRLPRPRPRPWTWPRP ?
MEDIUM

Into which category would you place RRIRRRPPRLPRPRPRPRKYPRP ?
LOW

Into which category would you place RRIRIRPPRLPRPRPRPAFHPRP ?
LOW

Into which category would you place RRIRYRPPRLPRPRPRPILEPRP ?
MEDIUM

Into which category would you place RRIRYRPPRLPRPRPRPDCIPRP ?
LOW

Into which category would you place RRIRLRPPRLPRPRPRPNMKPRP ?
LOW

New cases:
Into which category would you place RRIRERPPRLPRPRPRPHELPRP ?
MEDIUM

Into which category would you place RRIRKRPPRLPRPRPRPLKIPRP ?
HIGH

----------
Below: a set of entries, each annotated with reported shrunken log2 fold change.
Tested on: Escherichia coli TOP10
RUN DESCRIPTION: shrunken log2 fold change of peptide-encoding DNA abundance (4.5 h post-induction vs induction); higher = less antimicrobial activity (less host growth inhibition)
TEST SETTINGS: time post-induction: 4.5 h; library: site-saturation at positions 5, 18, 19, 20

I am curious: what shrunken log2 fold change value has been reported for RRIRYRPPRLPRPRPRPMRNPRP ?
0.174

I am curious: what shrunken log2 fold change value has been reported for RRIRTRPPRLPRPRPRPSGDPRP ?
-0.221

I am curious: what shrunken log2 fold change value has been reported for RRIRARPPRLPRPRPRPPDYPRP ?
0.406

I am curious: what shrunken log2 fold change value has been reported for RRIRFRPPRLPRPRPRPSGQPRP ?
-0.204

I am curious: what shrunken log2 fold change value has been reported for RRIRCRPPRLPRPRPRPPAWPRP ?
0.692

New cases:
I am curious: what shrunken log2 fold change value has been reported for RRIRERPPRLPRPRPRPGGQPRP ?
0.171

I am curious: what shrunken log2 fold change value has been reported for RRIRSRPPRLPRPRPRPAQIPRP ?
-0.0853

----------
System: Escherichia coli TOP10
RUN DESCRIPTION: shrunken log2 fold change of peptide-encoding DNA abundance (4.5 h post-induction vs induction); higher = less antimicrobial activity (less host growth inhibition)
TEST SETTINGS: time post-induction: 4.5 h; library: site-saturation at positions 5, 18, 19, 20
Below: a set of entries, each annotated with reported shrunken log2 fold change.
Answer with the value's number alone.

I am curious: what shrunken log2 fold change value has been reported for RRIRARPPRLPRPRPRPIVQPRP ?
0.0602

I am curious: what shrunken log2 fold change value has been reported for RRIRHRPPRLPRPRPRPCWIPRP ?
-0.00991

I am curious: what shrunken log2 fold change value has been reported for RRIRQRPPRLPRPRPRPSVPPRP ?
-0.0859

New cases:
I am curious: what shrunken log2 fold change value has been reported for RRIRWRPPRLPRPRPRPFGFPRP ?
0.321

----------
Below: a set of entries, each annotated with reported shrunken log2 fold change.
System: Escherichia coli TOP10
RUN DESCRIPTION: shrunken log2 fold change of peptide-encoding DNA abundance (4.5 h post-induction vs induction); higher = less antimicrobial activity (less host growth inhibition)
TEST SETTINGS: time post-induction: 4.5 h; library: site-saturation at positions 5, 18, 19, 20
Answer with the value's number alone.

I am curious: what shrunken log2 fold change value has been reported for RRIRFRPPRLPRPRPRPKRYPRP ?
0.0178

I am curious: what shrunken log2 fold change value has been reported for RRIRYRPPRLPRPRPRPESHPRP ?
-0.226

I am curious: what shrunken log2 fold change value has been reported for RRIRLRPPRLPRPRPRPRCQPRP ?
0.72

I am curious: what shrunken log2 fold change value has been reported for RRIRWRPPRLPRPRPRPLPQPRP ?
0.248

I am curious: what shrunken log2 fold change value has been reported for RRIRHRPPRLPRPRPRPPKEPRP ?
0.121

New cases:
I am curious: what shrunken log2 fold change value has been reported for RRIRKRPPRLPRPRPRPRRTPRP ?
0.443

I am curious: what shrunken log2 fold change value has been reported for RRIRCRPPRLPRPRPRPCQRPRP ?
0.0663

I am curious: what shrunken log2 fold change value has been reported for RRIRIRPPRLPRPRPRPFGRPRP ?
-0.0138

I am curious: what shrunken log2 fold change value has been reported for RRIRRRPPRLPRPRPRPTNQPRP ?
0.111

I am curious: what shrunken log2 fold change value has been reported for RRIRSRPPRLPRPRPRPDGKPRP ?
0.00369

----------
System: Escherichia coli TOP10
RUN DESCRIPTION: shrunken log2 fold change of peptide-encoding DNA abundance (4.5 h post-induction vs induction); higher = less antimicrobial activity (less host growth inhibition)
TEST SETTINGS: time post-induction: 4.5 h; library: site-saturation at positions 5, 18, 19, 20
Below: a set of entries, each annotated with reported shrunken log2 fold change.
Answer with the value's number alone.

Look over these answered cases.
Return shrunken log2 fold change measured with Escherichia coli TOP10 given this sequence: RRIRSRPPRLPRPRPRPVVQPRP
-0.0812

Return shrunken log2 fold change measured with Escherichia coli TOP10 given this sequence: RRIRWRPPRLPRPRPRPDSVPRP
-0.0816

New cases:
Return shrunken log2 fold change measured with Escherichia coli TOP10 given this sequence: RRIRYRPPRLPRPRPRPCYLPRP
-0.0778

----------
Tested on: Escherichia coli TOP10
RUN DESCRIPTION: shrunken log2 fold change of peptide-encoding DNA abundance (4.5 h post-induction vs induction); higher = less antimicrobial activity (less host growth inhibition)
TEST SETTINGS: time post-induction: 4.5 h; library: site-saturation at positions 5, 18, 19, 20
Cut-off 0.009 on shrunken log2 fold change, inclusive. At or above means yes (1); below means no (0).

Here are 8 sequences together with their reported answers.
Entry RRIRQRPPRLPRPRPRPRCRPRP : is its shrunken log2 fold change no less than 0.009?
yes (1)

Entry RRIRTRPPRLPRPRPRPLARPRP : is its shrunken log2 fold change no less than 0.009?
no (0)

Entry RRIRSRPPRLPRPRPRPAGPPRP : is its shrunken log2 fold change no less than 0.009?
yes (1)

Entry RRIRFRPPRLPRPRPRPGCYPRP : is its shrunken log2 fold change no less than 0.009?
no (0)

Entry RRIRCRPPRLPRPRPRPQMGPRP : is its shrunken log2 fold change no less than 0.009?
no (0)

Entry RRIRSRPPRLPRPRPRPTRVPRP : is its shrunken log2 fold change no less than 0.009?
yes (1)

Entry RRIRDRPPRLPRPRPRPTIIPRP : is its shrunken log2 fold change no less than 0.009?
no (0)

Entry RRIRPRPPRLPRPRPRPMHSPRP : is its shrunken log2 fold change no less than 0.009?
yes (1)

New cases:
Entry RRIRERPPRLPRPRPRPWEQPRP : is its shrunken log2 fold change no less than 0.009?
no (0)

Entry RRIRLRPPRLPRPRPRPWRNPRP : is its shrunken log2 fold change no less than 0.009?
no (0)

Entry RRIRMRPPRLPRPRPRPGHDPRP : is its shrunken log2 fold change no less than 0.009?
yes (1)

Entry RRIRPRPPRLPRPRPRPPWLPRP : is its shrunken log2 fold change no less than 0.009?
yes (1)

Entry RRIRKRPPRLPRPRPRPATVPRP : is its shrunken log2 fold change no less than 0.009?
yes (1)

----------
Test system: Escherichia coli TOP10;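 further: peptides expressed intracellularly from a pBAD plasmid library in pooled LB shake-flask culture, induced with 0.3% L-arabinose, DNA abundance read by NGS, three biological replicates, DESeq2 with apeglm shrinkage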
RUN DESCRIPTION: shrunken log2 fold change of peptide-encoding DNA abundance (4.5 h post-induction vs induction); higher = less antimicrobial activity (less host growth inhibition)
TEST SETTINGS: time post-induction: 4.5 h; library: site-saturation at positions 5, 18, 19, 20
Binning scheme for shrunken log2 fold change: lower segment = under -0.06, middle segment = from -0.06 up to 0.2, upper segment = 0.2 and over

Into which category would you place RRIRTRPPRLPRPRPRPVAWPRP ?
upper segment

New cases:
Into which category would you place RRIRVRPPRLPRPRPRPCNMPRP ?
lower segment

Into which category would you place RRIRHRPPRLPRPRPRPHVNPRP ?
lower segment

Into which category would you place RRIRRRPPRLPRPRPRPRKQPRP ?
lower segment

Into which category would you place RRIRMRPPRLPRPRPRPAHMPRP ?
upper segment

Into which category would you place RRIRARPPRLPRPRPRPVSWPRP ?
upper segment

Into which category would you place RRIRERPPRLPRPRPRPRHRPRP ?
lower segment

Into which category would you place RRIRRRPPRLPRPRPRPSLYPRP ?
lower segment

Into which category would you place RRIRYRPPRLPRPRPRPIVPPRP ?
middle segment

Into which category would you place RRIRMRPPRLPRPRPRPWDCPRP ?
middle segment

Into which category would you place RRIRSRPPRLPRPRPRPPWNPRP ?
middle segment

Into which category would you place RRIRRRPPRLPRPRPRPNATPRP ?
upper segment

Into which category would you place RRIRQRPPRLPRPRPRPIVNPRP ?
middle segment

Into which category would you place RRIRNRPPRLPRPRPRPSRRPRP ?
upper segment
